# ASSAY METHOD TEXT: Anticancer activity against human EC109 cells assessed as inhibition of proliferation after 72 hrs by MTT assay
# Assay type: functional, cell-based
# MEASUREMENT PARAMETERS: ECa-109, 72 h
Entries whose IC50 is below 10 µM take 1; entries at or above 10 µM take 0.

Consider the following illustrative entries.
Cc1cccc(Nc2nc(SCc3cn(CC(=O)NC(=O)Nc4ccccn4)nn3)nc(-c3ccc(C(C)C)cc3)c2C#N)c1 | 1
CC(C)c1ccc(-c2nc(SCc3cn(CC(=O)NC(=O)Nc4ccccn4)nn3)nc(Nc3ccccc3F)c2C#N)cc1 | 0
CC(C)c1ccc(-c2nc(SCc3cn(CC(=O)NC(=O)Nc4ccccn4)nn3)nc(Nc3cccc(Cl)c3)c2C#N)cc1 | 0

# input Find out if reported IC50 for `COc1cc(-c2nc(SCc3cn(CC(=O)NC(=O)Nc4ccccn4)nn3)nc(Nc3cccc(Cl)c3)c2C#N)cc(OC)c1OC` is less than 10 µM
# output 0

# input Find out if reported IC50 for `N#Cc1c(Nc2cccc(C(F)(F)F)c2)nc(SCc2cn(CC(=O)NC(=O)Nc3ccccn3)nn2)nc1-c1ccc(Br)cc1` is less than 10 µM
# output 1

# input Find out if reported IC50 for `CC(C)c1ccc(-c2nc(SCc3cn(CC(=O)NC(=O)Nc4ccccn4)nn3)nc(Nc3ccc(F)cc3)c2C#N)cc1` is less than 10 µM
# output 0

# input Find out if reported IC50 for `Cc1ccc(-c2nc(SCc3cn(CC(=O)NC(=O)Nc4ccccn4)nn3)nc(Nc3cccc(C(F)(F)F)c3)c2C#N)cc1` is less than 10 µM
# output 0

---

# ASSAY METHOD TEXT: Anticancer activity against human EC109 cells assessed as inhibition of proliferation after 72 hrs by MTT assay
# Type: functional, cell-based
# MEASUREMENT PARAMETERS: ECa-109, 72 h
RESULT TYPE: IC50 (µM)
Numbers only here, please. The scale is µM.

Recorded results for 5 compounds are shown here.
CC(C)c1ccc(-c2nc(SCc3cn(CC(=O)NC(=O)Nc4ccccn4)nn3)nc(Nc3cccc(C(F)(F)F)c3)c2C#N)cc1 | 24.2
Cc1ccc(-c2nc(SCc3cn(CC(=O)NC(=O)Nc4ccccn4)nn3)nc(Nc3cccc(Cl)c3)c2C#N)cc1 | 25.6
O=c1[nH]cc(F)c(=O)[nH]1 | 11.6
CC(C)c1ccc(-c2nc(SCc3cn(CC(=O)NC(=O)Nc4ccccn4)nn3)nc(Nc3ccccc3Cl)c2C#N)cc1 | 23.4
CC(C)c1ccc(-c2nc(SCc3cn(CC(=O)NC(=O)Nc4ccccn4)nn3)nc(Nc3cccc([N+](=O)[O-])c3)c2C#N)cc1 | 31.3

# input Reported IC50, compound `Cc1ccc(Nc2nc(SCc3cn(CC(=O)NC(=O)Nc4ccccn4)nn3)nc(-c3ccc(Cl)cc3)c2C#N)cc1` : ____
# output 13.1

# input Reported IC50, compound `Cc1ccc(Nc2nc(SCc3cn(CC(=O)NC(=O)Nc4ccccn4)nn3)nc(-c3ccc(C(C)C)cc3)c2C#N)cc1` : ____
# output 6.7

# input Reported IC50, compound `CC(C)c1ccc(-c2nc(SCc3cn(CC(=O)NC(=O)Nc4ccccn4)nn3)nc(Nc3ccccc3O)c2C#N)cc1` : ____
# output 7.38

# input Reported IC50, compound `COc1ccc(Nc2nc(SCc3cn(CC(=O)NC(=O)Nc4ccccn4)nn3)nc(-c3ccc(C(C)C)cc3)c2C#N)cc1` : ____
# output 5.42

# input Reported IC50, compound `Cc1ccccc1Nc1nc(SCc2cn(CC(=O)NC(=O)Nc3ccccn3)nn2)nc(-c2ccc(C(C)C)cc2)c1C#N` : ____
# output 7.23
